src = the RNAGym collection of RNA variant scans (doi:10.1002/anie.201605470)

B1: Osa-1-4 twister ribozyme (parent)
chain: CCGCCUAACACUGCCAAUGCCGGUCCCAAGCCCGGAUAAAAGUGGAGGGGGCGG

Variants of: B1
protocol-notes: self-cleavage, relative activity (ratio to wild type); higher = more cleavage; co-transcriptional
Measured self-cleavage, listed per entry for reference.

Some solved cases for reference:
variant	data-value
G22C G44C	0.06
A17U U12G	0.44

Quick check: self-cleavage of C52G G42C ?
0.22

Entry under review: C33A U43A . Reported self-cleavage?
0.08
